- test-name: calcium signal blockers in parental CHO-K1 cells – cell-based, Fluo-8 calcium fluorescence, full deck, 1536-well, counter-screen for M1 antagonist project, primary screen (AID 602250)
- particulars: ATP-induced calcium, Fluo-8 fluorescence, at 3 µM
Hit rate of the full screen: of about 360,000 compounds, about 2,200 (0.61%) were called active.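 Rule for the calls: active = inhibition above a per-plate cutoff, the plate's mean sample inhibition plus 3 SD (cut at about 24% in these data); inactive = the rest.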 Shown is part of a subset that was picked to be rich in actives.
Can you answer with just one of these options? active, inactive

Please review the following examples before continuing.
molecule="COc1ccc(CC(=O)NC2CCSc3ccccc32)cc1OC (stereo not given)" label_class=inactive
molecule=Cc1ccc(S(=O)(=O)N2CCC(=O)N([C@H](COCc3ccccc3)Cc3ccccc3)CC2)cc1 label_class=inactive
molecule=COc1ccccc1-n1c(C)nc2cc(C(=O)NCc3ccc4c(c3)OCO4)ccc21 label_class=inactive
molecule=COc1ccc(CC(=O)Nc2nc(-c3ccc(F)c(F)c3)cs2)cc1OC label_class=active

Please find the next molecule below.
Ask | Hi, do you know how Cc1ccc(S(=O)(=O)N2CCC(=O)N([C@H](COCc3ccccc3)C(C)C)CC2)cc1 came out in this test?
Reply | active
